# assayedSystem: Mitogen-activated protein kinase 10 (Homo sapiens, UniProt P53779)
# Sequence (P53779 whole entry): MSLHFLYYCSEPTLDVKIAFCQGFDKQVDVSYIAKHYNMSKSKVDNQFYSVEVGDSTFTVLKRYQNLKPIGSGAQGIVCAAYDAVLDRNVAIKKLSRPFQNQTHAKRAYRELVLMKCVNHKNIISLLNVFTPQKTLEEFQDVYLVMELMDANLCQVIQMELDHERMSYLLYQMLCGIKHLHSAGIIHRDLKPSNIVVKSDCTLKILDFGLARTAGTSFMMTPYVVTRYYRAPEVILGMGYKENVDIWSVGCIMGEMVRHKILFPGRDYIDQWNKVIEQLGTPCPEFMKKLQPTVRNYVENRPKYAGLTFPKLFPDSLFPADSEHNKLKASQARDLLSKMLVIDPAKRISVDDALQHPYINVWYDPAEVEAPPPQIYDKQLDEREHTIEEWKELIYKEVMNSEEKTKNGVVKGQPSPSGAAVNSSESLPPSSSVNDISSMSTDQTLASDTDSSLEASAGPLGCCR
# experiment: Inhibition of recombinant JNK3 after 60 mins by TR-FRET assay
readoutName: IC50

chemicalstructure=O=C(Cc1cccc2cnccc12)Nc1scnc1-c1cscn1 assayedsystem="Mitogen-activated protein kinase 10 (Homo sapiens, UniProt P53779)" result="0.077 µM"
chemicalstructure=C=C(C)c1sccc1NC(=O)Cc1ccccc1 assayedsystem="Mitogen-activated protein kinase 10 (Homo sapiens, UniProt P53779)" result="> 50 µM"

// switching to the query compound
Request: Give IC50 (Mitogen-activated protein kinase 10 (Homo sapiens, UniProt P53779)) of the following compound: `Cc1nccnc1NC(=O)Cc1cccc2ccccc12`
Response: > 50 µM
